These measurements were taken from patent US20220195023A1.

# assayed system: (NANP)6 (Plasmodium falciparum)
# test: BLI, target on sensor
pKd: −log10 of the molar value.
Parameter threshold = 9. Response is YES when pKd meets or exceeds it, else NO.

binder	answer label
AB-007046 (antibody, V domains shown) VH: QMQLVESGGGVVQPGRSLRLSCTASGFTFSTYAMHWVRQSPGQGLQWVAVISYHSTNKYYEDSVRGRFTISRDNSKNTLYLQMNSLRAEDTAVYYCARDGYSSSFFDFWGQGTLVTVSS VL: DIQMTQSPSTLSASVGDRVAITCRASQSISRWLAWYQQQPGKAPKLLMSGASVLESGVPSRFSGSGSGTEFTLTISSLQPDDFATYYCQHYYSYFVTFGQGTKVEIK	NO

Field: next binder
IN: Entry AB-007031 (antibody, V domains shown) VH: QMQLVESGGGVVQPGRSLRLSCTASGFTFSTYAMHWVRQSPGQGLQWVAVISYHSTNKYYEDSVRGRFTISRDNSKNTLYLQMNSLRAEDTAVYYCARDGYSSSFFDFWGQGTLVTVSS VL: DIQMTQSPSTLSASVGDRVAITCRASQSISRWLAWYQQQPGKAPKLLISGASVLESGVPSRFSGSGSGTEFTLTISSLQPDDFATYYCQHYNSYFVTFGQGTKVEIK : is its pKd no less than 9?
OUT: YES
